# pIC50 listing for each entry below
Target: ionotropic quisqualate (AMPA) receptors
Test: In vitro inhibition of 3H-AMPA binding
Settings: 5 nM 3H-AMPA, rat cerebral cortex membranes, 30 min at 2° C.; read-out: IC50 (concentration of the test substance which inhibits the specific binding of 3H-AMPA by 50%)
Notebook: values listed as pIC50 are -log10 of the concentration (mol/L).

1. CN1CCN(S(=O)(=O)c2ccc3c(c2)S(=O)(=O)NC(C2CCCCC2)N3)CC1 (stereo not drawn) :: 5.07
2. Cc1cc2c(cc1S(=O)(=O)N1CCOCC1)S(=O)(=O)NC(C1CCCCC1)N2 (stereo not drawn) :: 5.15
3. NC(=O)c1ccc2c(c1)S(=O)(=O)NC(C1CCCCC1)N2 (stereo not drawn) :: 4.41
4. CC(=O)c1ccc2c(c1)S(=O)(=O)NC(C1CCCCC1)N2 (stereo not drawn) :: 4.66
5. NS(=O)(=O)c1ccc2c(c1)S(=O)(=O)NC(C1CCCCC1)N2 (stereo not drawn) :: 5.46

stdin: # query: pIC50 of entry O=S1(=O)NC(C2CC3C=CC2C3)Nc2ccc(S(=O)(=O)N3CCCCC3)cc21 (stereo not drawn)
stdout: 4.59

stdin: Fill in: pIC50 of CCN(CC)S(=O)(=O)c1ccc2c(c1)S(=O)(=O)NC(C1CCCCC1)N2 (stereo not drawn) is ___
stdout: 5.36

stdin: Consider the compound Cc1cc2c(cc1S(=O)(=O)N1CCCCC1)S(=O)(=O)NC(C1CCCC1)N2 (stereo not drawn) and give its measured pIC50.
stdout: 4.48

stdin: If you can, please state the reported pIC50 value of O=S1(=O)NC(C2CCCCC2)Nc2ccc(S(=O)(=O)N3CC=CCC3)cc21 (stereo not drawn) .
stdout: 5.47

stdin: Please report the recorded pIC50 for O=S1(=O)NC(C2CCCCC2)Nc2ccc(S(=O)(=O)N3CCCC3)cc21 (stereo not drawn) .
stdout: 4.77

stdin: Can you look up the measured pIC50 of O=S1(=O)NC(C2CCCCC2)Nc2ccc(S(=O)(=O)N3CCOCC3)cc21 (stereo not drawn) for me?
stdout: 5.22

stdin: Requested field: pIC50. Item: Cc1cc2c(cc1S(N)(=O)=O)S(=O)(=O)NC(C1CCCCC1)N2 (stereo not drawn)
stdout: 4.89

stdin: So what does the record say about pIC50 for CN(C)S(=O)(=O)c1ccc2c(c1)S(=O)(=O)NC(C1CCCCC1)N2 (stereo not drawn) ?
stdout: 5.28

stdin: I have this compound here, CC(=NO)c1ccc2c(c1)S(=O)(=O)NC(C1CCCCC1)N2 (stereo not drawn) , and I need its recorded pIC50.
stdout: 4.35

stdin: Which pIC50 reading was recorded for the compound CS(=O)(=O)N1CCN(S(=O)(=O)c2ccc3c(c2)S(=O)(=O)NC(C2CCCCC2)N3)CC1 (stereo not drawn) ?
stdout: 5.22

----------
Property: melting point; scope: individual compounds

Sample answers from the record:
1) O=S1(=O)NC(C2CCCC2)Nc2ccc(S(=O)(=O)N3CCCCC3)cc21 (stereo not shown) [Compound 55] :: 258 to 260 °C
2) O=[N+]([O-])c1ccc2c(c1)S(=O)(=O)NC(C1CCCCC1)N2 (stereo not shown) [Compound 40] :: 209 to 211 °C
3) CN(C)S(=O)(=O)c1ccccc1-c1ccc2c(c1)S(=O)(=O)NC(C1CCCCC1)N2 (stereo not shown) [Compound 24] :: 290 to 300 °C

stdin: // query melting point value for entry O=S1(=O)NC(C2CCCCC2)Nc2ccc(-c3cccc(O)c3)cc21 (stereo not shown) [Compound 27]
stdout: 238 to 246 °C

stdin: I am curious: what melting point value has been reported for CN1c2ccc(S(=O)(=O)N3CCOCC3)cc2S(=O)(=O)NC1C1CCCCC1 (stereo not shown) [Compound 86] ?
stdout: 207 to 210 °C

stdin: Quick one: melting point of O=S1(=O)NC(C2CCCCC2)Nc2cc3c(cc21)OCCO3 (stereo not shown) [Compound 118] ?
stdout: 196 to 200 °C

stdin: # melting point lookup, item Cc1cc2c(cc1S(N)(=O)=O)S(=O)(=O)NC(C1CCCCC1)N2 (stereo not shown) [Compound 113]
stdout: 231 to 233 °C
